Listed here: items and their measured Post-emerge Herbicidal Activity ECHCG.
# System: barnyardgrass (Echinochloa crus-galli, ECHCG)
# Assay notes: Post-emerge test, greenhouse herbicide activity screening
# Type: in vivo
# Experimental parameters: post-emerge, 63 g ai/ha, phytotoxicity rating 0-100 at 14 days after application

{"Molecule": "COc1cccc(COC(=O)Nc2c(C)c(Cl)cc(F)c2-n2c(=O)cc(C(F)(F)F)n(C)c2=O)c1 [4-65]", "Post-emerge Herbicidal Activity ECHCG": 60}
{"Molecule": "Cc1cccc(COC(=O)Nc2c(C)c(Cl)cc(F)c2-n2c(=O)cc(C(F)(F)F)n(C)c2=O)c1 [4-68]", "Post-emerge Herbicidal Activity ECHCG": 90}
{"Molecule": "COc1c(Cl)cc(F)c(-n2ncc(C(F)(F)F)c(C)c2=O)c1NC(=O)c1ccc2ccccc2c1 [11-13]", "Post-emerge Herbicidal Activity ECHCG": 65}
